Source: the supplement of paper PMC11196671

Quick reference: BHET released of the listed items.
- assay_remarks: BHET released, HPLC; higher = more BHET released; extreme values may be limits of the assay
- measurement_setup: PET substrate: cryPow; 60 °C; pH 9.5; 24 h

entry_sequence: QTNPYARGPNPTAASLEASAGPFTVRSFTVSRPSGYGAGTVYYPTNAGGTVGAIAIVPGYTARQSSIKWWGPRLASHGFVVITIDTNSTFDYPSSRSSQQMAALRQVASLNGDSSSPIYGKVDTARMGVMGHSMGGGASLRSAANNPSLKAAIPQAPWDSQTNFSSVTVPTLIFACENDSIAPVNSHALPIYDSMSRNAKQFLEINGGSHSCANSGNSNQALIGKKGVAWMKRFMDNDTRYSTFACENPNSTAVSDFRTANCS [DuraPETase]
BHET released / mM: 0
--
entry_sequence: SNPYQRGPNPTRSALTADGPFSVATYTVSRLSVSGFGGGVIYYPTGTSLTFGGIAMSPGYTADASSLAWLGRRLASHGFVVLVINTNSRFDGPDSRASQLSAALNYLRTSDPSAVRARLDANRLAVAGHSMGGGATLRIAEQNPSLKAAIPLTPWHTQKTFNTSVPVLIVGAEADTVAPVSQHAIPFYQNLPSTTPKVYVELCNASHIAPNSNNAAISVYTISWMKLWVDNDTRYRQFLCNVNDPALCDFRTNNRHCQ [LCC-ICCG DAQI]
BHET released / mM: 0
--
entry_sequence: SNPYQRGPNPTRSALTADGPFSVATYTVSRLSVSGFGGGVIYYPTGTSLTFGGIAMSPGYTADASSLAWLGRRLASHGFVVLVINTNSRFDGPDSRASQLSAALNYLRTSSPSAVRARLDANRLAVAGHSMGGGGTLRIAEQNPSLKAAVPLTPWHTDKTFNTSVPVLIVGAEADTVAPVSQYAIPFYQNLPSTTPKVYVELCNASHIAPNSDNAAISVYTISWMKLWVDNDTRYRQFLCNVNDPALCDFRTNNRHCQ [LCC-A2]
BHET released / mM: 0

* * *

- assay_remarks: PET hydrolysis product formed (TPA+MHET+BHET, UV-Vis) per mg enzyme (mmol/mg enzyme); higher = more PET depolymerisation activity; extreme values may be limits of the assay
- measurement_setup: PET substrate: cryPow; 60 °C; pH 8.5; 24 h
Quick reference: PET hydrolysis product formed of the listed items.
assay_endpoint: PET hydrolysis product formed

entry_sequence: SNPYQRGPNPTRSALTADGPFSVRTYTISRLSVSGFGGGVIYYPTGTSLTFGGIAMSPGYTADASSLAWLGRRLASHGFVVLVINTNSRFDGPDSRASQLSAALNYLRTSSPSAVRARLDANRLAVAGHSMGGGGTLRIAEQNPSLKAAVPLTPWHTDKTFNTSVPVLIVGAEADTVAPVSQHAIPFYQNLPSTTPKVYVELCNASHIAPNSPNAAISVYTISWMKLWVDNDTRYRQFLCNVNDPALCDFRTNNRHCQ [LCC-ICCG RIP]
assay_endpoint: PET hydrolysis product formed
assay_value: 0.0714
--
entry_sequence: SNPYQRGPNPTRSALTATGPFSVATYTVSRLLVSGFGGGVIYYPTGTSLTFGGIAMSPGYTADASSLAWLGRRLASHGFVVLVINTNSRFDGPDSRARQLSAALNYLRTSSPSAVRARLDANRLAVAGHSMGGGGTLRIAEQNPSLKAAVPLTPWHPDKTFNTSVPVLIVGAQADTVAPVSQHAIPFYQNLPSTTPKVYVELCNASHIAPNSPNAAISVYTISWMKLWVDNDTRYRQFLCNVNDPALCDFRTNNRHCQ [LCC-ICCG I6M]
assay_endpoint: PET hydrolysis product formed
assay_value: 0.0461
--
entry_sequence: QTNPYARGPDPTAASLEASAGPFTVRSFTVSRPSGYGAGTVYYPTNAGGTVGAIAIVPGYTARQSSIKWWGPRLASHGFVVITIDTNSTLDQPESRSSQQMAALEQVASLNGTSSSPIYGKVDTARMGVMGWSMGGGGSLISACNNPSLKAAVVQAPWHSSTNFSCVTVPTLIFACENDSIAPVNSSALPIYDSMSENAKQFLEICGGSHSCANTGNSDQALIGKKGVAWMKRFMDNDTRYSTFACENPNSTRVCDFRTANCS [Z1-PETase]
assay_endpoint: PET hydrolysis product formed
assay_value: 0.117
--
entry_sequence: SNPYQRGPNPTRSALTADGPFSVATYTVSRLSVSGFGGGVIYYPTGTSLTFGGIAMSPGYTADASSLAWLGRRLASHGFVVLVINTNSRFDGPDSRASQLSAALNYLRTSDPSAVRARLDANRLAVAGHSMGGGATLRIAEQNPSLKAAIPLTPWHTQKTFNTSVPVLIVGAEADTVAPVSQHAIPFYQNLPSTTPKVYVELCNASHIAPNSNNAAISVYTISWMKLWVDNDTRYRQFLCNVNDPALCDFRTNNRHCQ [LCC-ICCG DAQI]
assay_endpoint: PET hydrolysis product formed
assay_value: 0.0738
--
entry_sequence: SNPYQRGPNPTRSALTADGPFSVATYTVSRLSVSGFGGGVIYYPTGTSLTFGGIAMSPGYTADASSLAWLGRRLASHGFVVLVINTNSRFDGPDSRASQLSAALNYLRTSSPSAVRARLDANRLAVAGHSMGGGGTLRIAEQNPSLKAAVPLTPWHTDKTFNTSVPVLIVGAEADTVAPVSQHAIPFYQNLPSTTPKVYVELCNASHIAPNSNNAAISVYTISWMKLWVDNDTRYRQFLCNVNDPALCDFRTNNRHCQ [LCC-ICCG]
assay_endpoint: PET hydrolysis product formed
assay_value: 0.0728
--
entry_sequence: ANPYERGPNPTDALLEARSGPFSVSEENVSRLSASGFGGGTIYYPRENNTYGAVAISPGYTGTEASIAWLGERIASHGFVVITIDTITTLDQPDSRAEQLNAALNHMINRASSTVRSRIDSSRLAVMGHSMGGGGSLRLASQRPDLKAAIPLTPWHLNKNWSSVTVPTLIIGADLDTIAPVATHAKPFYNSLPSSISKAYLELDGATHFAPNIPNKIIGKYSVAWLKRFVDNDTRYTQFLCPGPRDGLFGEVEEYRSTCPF [TfCut2]
assay_endpoint: PET hydrolysis product formed
assay_value: 0.0198

* * *

- assay_remarks: PET hydrolysis product formed (TPA+MHET+BHET, UV-Vis) per mg enzyme (mmol/mg enzyme); higher = more PET depolymerisation activity; extreme values may be limits of the assay
- measurement_setup: PET substrate: cryPow; 60 °C; pH 6.5; 2 h
Quick reference: PET hydrolysis product formed of the listed items.

entry_sequence: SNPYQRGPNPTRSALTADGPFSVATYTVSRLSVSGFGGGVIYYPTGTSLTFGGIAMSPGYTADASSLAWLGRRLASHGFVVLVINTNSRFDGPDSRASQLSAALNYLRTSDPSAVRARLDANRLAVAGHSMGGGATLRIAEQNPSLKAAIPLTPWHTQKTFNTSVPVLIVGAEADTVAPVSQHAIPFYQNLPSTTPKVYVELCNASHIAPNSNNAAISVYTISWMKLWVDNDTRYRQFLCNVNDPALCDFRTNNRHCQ [LCC-ICCG DAQI]
PET hydrolysis product formed: 0.0449

entry_sequence: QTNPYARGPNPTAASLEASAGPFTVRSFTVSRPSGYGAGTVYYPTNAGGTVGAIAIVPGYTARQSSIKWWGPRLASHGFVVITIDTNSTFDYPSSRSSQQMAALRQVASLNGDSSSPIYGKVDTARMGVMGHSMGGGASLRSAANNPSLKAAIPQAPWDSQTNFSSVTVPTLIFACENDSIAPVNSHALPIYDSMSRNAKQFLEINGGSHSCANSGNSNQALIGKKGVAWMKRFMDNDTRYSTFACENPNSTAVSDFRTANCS [DuraPETase]
PET hydrolysis product formed: 0

entry_sequence: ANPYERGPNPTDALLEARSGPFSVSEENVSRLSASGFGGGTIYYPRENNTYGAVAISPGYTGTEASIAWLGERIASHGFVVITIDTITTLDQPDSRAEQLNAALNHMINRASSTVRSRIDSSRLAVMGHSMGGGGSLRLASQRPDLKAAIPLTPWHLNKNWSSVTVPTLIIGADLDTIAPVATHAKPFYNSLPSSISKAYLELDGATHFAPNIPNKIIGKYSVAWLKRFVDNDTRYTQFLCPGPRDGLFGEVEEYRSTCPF [TfCut2]
PET hydrolysis product formed: 0

* * *

Quick reference: PET hydrolysis product formed of the listed items.
- assay_remarks: PET hydrolysis product formed (TPA+MHET+BHET, UV-Vis) per mg enzyme (mmol/mg enzyme); higher = more PET depolymerisation activity; extreme values may be limits of the assay
- measurement_setup: PET substrate: cryPow; 60 °C; pH 7.5; 24 h

entry_sequence: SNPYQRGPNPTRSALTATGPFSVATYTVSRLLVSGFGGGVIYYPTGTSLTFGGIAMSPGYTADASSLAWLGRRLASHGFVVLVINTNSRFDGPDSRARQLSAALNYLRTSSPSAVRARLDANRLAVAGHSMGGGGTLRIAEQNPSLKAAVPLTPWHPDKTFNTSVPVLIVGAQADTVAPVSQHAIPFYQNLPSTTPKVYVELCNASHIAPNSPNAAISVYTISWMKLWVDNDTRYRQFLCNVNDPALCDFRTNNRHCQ [LCC-ICCG I6M]
PET hydrolysis product formed: 0.0808
//
entry_sequence: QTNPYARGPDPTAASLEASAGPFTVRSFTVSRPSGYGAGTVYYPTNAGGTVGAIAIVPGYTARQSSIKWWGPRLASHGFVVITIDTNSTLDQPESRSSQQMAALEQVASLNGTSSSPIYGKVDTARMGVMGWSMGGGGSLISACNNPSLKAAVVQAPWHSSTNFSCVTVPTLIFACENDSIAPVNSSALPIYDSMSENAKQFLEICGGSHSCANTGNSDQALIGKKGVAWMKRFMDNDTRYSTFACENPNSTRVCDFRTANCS [Z1-PETase]
PET hydrolysis product formed: 0.152
//
entry_sequence: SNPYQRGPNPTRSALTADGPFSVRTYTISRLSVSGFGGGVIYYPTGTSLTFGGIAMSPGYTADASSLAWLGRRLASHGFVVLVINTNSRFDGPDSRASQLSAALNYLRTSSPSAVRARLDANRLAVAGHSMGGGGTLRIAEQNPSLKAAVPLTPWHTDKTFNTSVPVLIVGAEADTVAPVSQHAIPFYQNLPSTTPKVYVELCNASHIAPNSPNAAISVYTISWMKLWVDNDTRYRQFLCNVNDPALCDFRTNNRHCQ [LCC-ICCG RIP]
PET hydrolysis product formed: 0.113
//
entry_sequence: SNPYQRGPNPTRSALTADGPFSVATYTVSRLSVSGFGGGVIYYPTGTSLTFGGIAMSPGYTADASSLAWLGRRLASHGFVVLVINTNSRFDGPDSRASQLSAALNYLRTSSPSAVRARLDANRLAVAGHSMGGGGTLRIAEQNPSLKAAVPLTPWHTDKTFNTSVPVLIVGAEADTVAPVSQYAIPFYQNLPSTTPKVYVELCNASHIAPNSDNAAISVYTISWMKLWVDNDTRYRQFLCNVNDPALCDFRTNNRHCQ [LCC-A2]
PET hydrolysis product formed: 0.261
//
entry_sequence: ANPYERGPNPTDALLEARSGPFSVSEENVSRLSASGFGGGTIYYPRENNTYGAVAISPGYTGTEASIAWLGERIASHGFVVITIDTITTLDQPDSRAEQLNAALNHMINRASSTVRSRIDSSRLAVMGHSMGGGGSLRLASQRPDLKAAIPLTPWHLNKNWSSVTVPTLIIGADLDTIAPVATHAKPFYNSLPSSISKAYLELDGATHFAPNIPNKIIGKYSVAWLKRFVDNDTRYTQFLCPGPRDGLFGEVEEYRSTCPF [TfCut2]
PET hydrolysis product formed: 0.0369
//
entry_sequence: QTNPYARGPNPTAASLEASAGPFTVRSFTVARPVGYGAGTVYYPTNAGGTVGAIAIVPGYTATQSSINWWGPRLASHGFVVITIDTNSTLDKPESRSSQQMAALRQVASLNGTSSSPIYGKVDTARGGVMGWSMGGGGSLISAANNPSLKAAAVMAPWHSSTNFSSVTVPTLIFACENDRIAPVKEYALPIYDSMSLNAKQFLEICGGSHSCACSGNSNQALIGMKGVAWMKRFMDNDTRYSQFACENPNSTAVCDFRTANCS [HotPETase]
PET hydrolysis product formed: 0.195
